target: Progesterone receptor (Homo sapiens); experiment: Antagonist activity at human progesterone receptor expressed in CHO cells assessed as […] luciferase activity by reporter gene assay; type: functional, cell-based
Sequence (P06401 whole entry): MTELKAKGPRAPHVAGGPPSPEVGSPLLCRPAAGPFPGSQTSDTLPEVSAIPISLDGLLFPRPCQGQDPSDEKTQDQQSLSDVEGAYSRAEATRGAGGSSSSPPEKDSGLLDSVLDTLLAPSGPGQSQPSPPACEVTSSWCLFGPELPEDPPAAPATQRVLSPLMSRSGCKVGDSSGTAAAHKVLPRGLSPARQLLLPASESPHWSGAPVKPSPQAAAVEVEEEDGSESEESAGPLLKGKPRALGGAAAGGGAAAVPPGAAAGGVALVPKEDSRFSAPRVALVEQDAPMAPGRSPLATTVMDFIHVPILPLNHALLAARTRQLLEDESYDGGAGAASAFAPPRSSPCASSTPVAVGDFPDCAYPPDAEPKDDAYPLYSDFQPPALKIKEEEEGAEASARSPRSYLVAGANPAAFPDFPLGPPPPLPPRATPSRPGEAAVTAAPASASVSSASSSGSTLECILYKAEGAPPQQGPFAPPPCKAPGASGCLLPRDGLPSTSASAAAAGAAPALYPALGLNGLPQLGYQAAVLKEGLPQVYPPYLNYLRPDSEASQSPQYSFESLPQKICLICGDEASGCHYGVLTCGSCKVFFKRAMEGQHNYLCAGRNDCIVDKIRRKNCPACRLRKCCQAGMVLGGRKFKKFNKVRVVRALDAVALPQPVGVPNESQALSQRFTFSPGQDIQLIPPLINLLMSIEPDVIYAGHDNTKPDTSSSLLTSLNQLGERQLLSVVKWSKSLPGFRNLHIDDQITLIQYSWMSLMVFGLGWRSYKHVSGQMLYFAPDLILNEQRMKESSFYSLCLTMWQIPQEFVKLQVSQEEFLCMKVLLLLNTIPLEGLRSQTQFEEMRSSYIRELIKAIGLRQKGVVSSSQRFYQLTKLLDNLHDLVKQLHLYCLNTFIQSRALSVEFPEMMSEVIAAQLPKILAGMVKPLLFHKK
value-kind: IC50 (µM)

INSERT INTO assay_data (compound_string, tested_on, value_kind, units_of_measure, reported_value) VALUES
  ('C=CCC1(CC=C)C(=O)N(c2ccc(C#N)cc2)C(=O)c2ccccc21', 'Progesterone receptor (Homo sapiens)', 'IC50', 'µM', 0.15),
  ('CCC1(CC)C(=O)N(c2ccc(Cl)cc2)C(=O)c2ccccc21', 'Progesterone receptor (Homo sapiens)', 'IC50', 'µM', 0.28),
  ('CC1(C)C(=O)N(c2ccccc2)C(=O)c2ccccc21', 'Progesterone receptor (Homo sapiens)', 'IC50', 'µM', 26),
  ('CCCn1c(=O)n(-c2ccccc2)c(=O)c2ccccc21', 'Progesterone receptor (Homo sapiens)', 'IC50', 'µM', 18),
  ('O=C1c2ccccc2C2(CCCC2)C(=O)N1c1ccc(Cl)cc1', 'Progesterone receptor (Homo sapiens)', 'IC50', 'µM', 2.1),
  ('CCC1(CC)C(=O)N(c2ccc(C#N)cc2)C(=O)c2ccccc21', 'Progesterone receptor (Homo sapiens)', 'IC50', 'µM', 0.078),
  ('Cc1ccc(N2C(=O)c3ccccc3C(C)(C)C2=O)cc1', 'Progesterone receptor (Homo sapiens)', 'IC50', 'µM', 8.9),
  ('CC1(C)C(=O)N(c2ccccc2F)C(=O)c2ccccc21', 'Progesterone receptor (Homo sapiens)', 'IC50', 'µM', 10),
  ('CC1(C)C(=O)N(c2cccc(Cl)c2)C(=O)c2ccccc21', 'Progesterone receptor (Homo sapiens)', 'IC50', 'µM', 5.8),
  ('CC1(C)C(=O)N(c2ccccc2Cl)C(=O)c2ccccc21', 'Progesterone receptor (Homo sapiens)', 'IC50', 'µM', 4.9),
  ('C=CCC1(CC=C)C(=O)N(c2ccc(Cl)cc2)C(=O)c2ccccc21', 'Progesterone receptor (Homo sapiens)', 'IC50', 'µM', 0.85),
  ('O=c1c2ccccc2n(Cc2ccccc2)c(=O)n1-c1ccccc1', 'Progesterone receptor (Homo sapiens)', 'IC50', 'µM', 15),
  ('N#Cc1ccc(N2C(=O)c3ccccc3C3(CCCCC3)C2=O)cc1', 'Progesterone receptor (Homo sapiens)', 'IC50', 'µM', 0.45),
  ('CCCC1(CCC)C(=O)N(c2ccc(C#N)cc2)C(=O)c2ccccc21', 'Progesterone receptor (Homo sapiens)', 'IC50', 'µM', 0.14),
  ('CC1(C)C(=O)N(c2ccc(C#N)cc2)C(=O)c2ccccc21', 'Progesterone receptor (Homo sapiens)', 'IC50', 'µM', 1.8),
  ('O=C1c2ccccc2C2(CCCCC2)C(=O)N1c1ccc(Cl)cc1', 'Progesterone receptor (Homo sapiens)', 'IC50', 'µM', 1.5),
  ('COc1ccc(N2C(=O)c3ccccc3C(C)(C)C2=O)cc1', 'Progesterone receptor (Homo sapiens)', 'IC50', 'µM', 17),
  ('N#Cc1ccc(N2C(=O)c3ccccc3C3(CCCC3)C2=O)cc1', 'Progesterone receptor (Homo sapiens)', 'IC50', 'µM', 0.69),
  ('CC1(C)C(=O)N(c2ccc(F)cc2)C(=O)c2ccccc21', 'Progesterone receptor (Homo sapiens)', 'IC50', 'µM', 8.9),
  ('CCCC1(CCC)C(=O)N(c2ccc(Cl)cc2)C(=O)c2ccccc21', 'Progesterone receptor (Homo sapiens)', 'IC50', 'µM', 1),
  ('CC1(C)C(=O)N(c2ccc(Cl)cc2)C(=O)c2ccccc21', 'Progesterone receptor (Homo sapiens)', 'IC50', 'µM', 3.3),
  ('CCn1c(=O)n(-c2ccccc2)c(=O)c2ccccc21', 'Progesterone receptor (Homo sapiens)', 'IC50', 'µM', 34),
  ('CC1(C)C(=O)N(c2cccc(F)c2)C(=O)c2ccccc21', 'Progesterone receptor (Homo sapiens)', 'IC50', 'µM', 11);

Value source: ChEMBL document CHEMBL1155106
